TARGET UNDER TEST: T1, Anti-CD28 Fab (SEQ ID NOs: 696, 697)
T1 construct: In the phage ELISA the Fab was biotinylated and captured on neutravidin coated plates
T1 sequence (VH, as listed by the source, chain 1 of 2): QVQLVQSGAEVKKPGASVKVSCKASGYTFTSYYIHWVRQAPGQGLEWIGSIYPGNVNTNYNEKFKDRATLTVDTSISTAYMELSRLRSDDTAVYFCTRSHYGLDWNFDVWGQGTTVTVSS
T1 sequence (VL, as listed by the source, chain 2 of 2): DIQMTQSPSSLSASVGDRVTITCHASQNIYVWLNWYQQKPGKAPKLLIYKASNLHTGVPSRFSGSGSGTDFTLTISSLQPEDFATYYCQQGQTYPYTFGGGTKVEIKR
TEST: phage binding ELISA; Fab-coated wells pre-incubated with CD28 antigen as competitor, anti-M13 HRP detection;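 note: crude clonal phage supernatants from panned colonies added to wells after blocking buffer plus CD28 treatment, bound phage measured after a brief incubation and washing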
Where no end group is shown, it is not given here.
The binders listed here are annotated with their Anti-CD28 Fab signal in the presence of CD28 (phage binding ELISA).
Output: the number by itself.

Before answering, review these 2 worked examples.
BINDER	MEAS VALUE
YCDGHSLLYLSKCL (cysteine pairing not given here; also: fused to phage pIII, Tested as clonal phage supernatant; not shown: fused to the pIII filament protein of the bacteriophage) [Phage-922 (Peptide-87 library clone, SEQ ID NO: 1238)]	0.07
YCDGHSEVYMAKCL (cysteine pairing not given here; also: fused to phage pIII, Tested as clonal phage supernatant; not shown: fused to the pIII filament protein of the bacteriophage) [Phage-921 (Peptide-87 library clone, SEQ ID NO: 1237)]	0.06

**Q:** // fetch Anti-CD28 Fab signal in the presence of CD28 (phage binding ELISA) given entry YCDGHDVEYMAKCL (cysteine pairing not given here; also: fused to phage pIII, Tested as clonal phage supernatant; not shown: fused to the pIII filament protein of the bacteriophage) [Phage-920 (Peptide-87 library clone, SEQ ID NO: 1236)]
**A:** 0.07
